Biological target: FL-SMARCA2 (full-length human SMARCA2 isoform 1) (Homo sapiens)
Construct: FLAG tag (YKDDDDK) (C); made in house; host or cells: Sf21 insect cells (baculovirus, pFastBacI)
Sequence (P51531 with tags, fused parts or gaps): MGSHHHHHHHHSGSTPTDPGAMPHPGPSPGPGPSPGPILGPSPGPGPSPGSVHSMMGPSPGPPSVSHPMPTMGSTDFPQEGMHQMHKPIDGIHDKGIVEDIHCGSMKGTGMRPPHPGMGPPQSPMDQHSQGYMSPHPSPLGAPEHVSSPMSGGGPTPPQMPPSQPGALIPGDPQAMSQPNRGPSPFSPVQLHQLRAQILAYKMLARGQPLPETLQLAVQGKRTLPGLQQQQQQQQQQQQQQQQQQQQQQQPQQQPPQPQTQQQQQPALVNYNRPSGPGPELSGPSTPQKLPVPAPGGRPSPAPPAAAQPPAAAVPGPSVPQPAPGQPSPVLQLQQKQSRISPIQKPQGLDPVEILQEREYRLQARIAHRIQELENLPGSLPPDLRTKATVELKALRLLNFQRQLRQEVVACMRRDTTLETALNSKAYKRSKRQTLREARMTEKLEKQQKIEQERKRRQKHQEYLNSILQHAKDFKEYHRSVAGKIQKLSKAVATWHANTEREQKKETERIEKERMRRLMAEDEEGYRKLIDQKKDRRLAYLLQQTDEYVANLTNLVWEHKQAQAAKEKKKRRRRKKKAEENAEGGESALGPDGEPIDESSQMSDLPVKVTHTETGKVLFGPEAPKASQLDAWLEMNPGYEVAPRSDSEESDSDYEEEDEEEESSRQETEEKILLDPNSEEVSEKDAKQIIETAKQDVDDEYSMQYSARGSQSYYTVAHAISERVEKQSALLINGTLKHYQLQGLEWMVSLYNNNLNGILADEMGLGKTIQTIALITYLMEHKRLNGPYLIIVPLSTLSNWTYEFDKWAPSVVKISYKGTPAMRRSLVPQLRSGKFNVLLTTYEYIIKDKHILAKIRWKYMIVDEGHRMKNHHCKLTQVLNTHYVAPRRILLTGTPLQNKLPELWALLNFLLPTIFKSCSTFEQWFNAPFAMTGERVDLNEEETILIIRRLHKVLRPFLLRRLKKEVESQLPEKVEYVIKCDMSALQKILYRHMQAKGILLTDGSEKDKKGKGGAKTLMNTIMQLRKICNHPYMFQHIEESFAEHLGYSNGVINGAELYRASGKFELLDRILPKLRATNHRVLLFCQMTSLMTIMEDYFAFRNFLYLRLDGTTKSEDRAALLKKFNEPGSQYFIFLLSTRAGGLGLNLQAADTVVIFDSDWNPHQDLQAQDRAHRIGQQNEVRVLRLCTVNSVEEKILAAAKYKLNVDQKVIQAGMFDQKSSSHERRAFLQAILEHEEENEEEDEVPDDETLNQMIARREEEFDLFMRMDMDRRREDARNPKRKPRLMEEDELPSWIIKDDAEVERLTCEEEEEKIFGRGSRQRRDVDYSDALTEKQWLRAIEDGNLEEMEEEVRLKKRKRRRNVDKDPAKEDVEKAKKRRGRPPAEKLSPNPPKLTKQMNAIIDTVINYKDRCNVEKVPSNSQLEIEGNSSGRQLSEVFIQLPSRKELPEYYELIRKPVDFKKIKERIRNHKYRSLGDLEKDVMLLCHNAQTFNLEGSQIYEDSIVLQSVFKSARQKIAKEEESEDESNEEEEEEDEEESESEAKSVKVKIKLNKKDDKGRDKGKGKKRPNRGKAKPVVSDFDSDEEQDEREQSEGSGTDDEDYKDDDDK
Experiment: SMARCA2 ATPase activity assay (ADP-Glo, chicken mononucleosome substrate)
Format: biochemical
Conditions: Table 3c.1; ATPase assay, enzyme 5 nM, ATP 250 uM, chicken mononucleosome 10 nM, 30 min preincubation
VALUE KIND: IC50 (µM)

N#Cc1sc(C(=O)Nc2cc(F)c(=O)n(CC(F)F)c2)cc1C#CC1COC1 [Compound 177c]: 0.0127
COc1nc(C#Cc2cc(C(=O)Nc3cc(F)c(=O)n(CC(F)F)c3)sc2Cl)cs1 [Compound 107c]: 0.0508
O=C(Nc1cc(F)c(=O)n(CC(F)F)c1)c1cc(C#Cc2ccncn2)c(Cl)s1 [Compound 59c]: 0.132
O=C(Nc1cc(F)c(=O)n(CC(F)F)c1)c1cc(C#CC2CNC2)c(Cl)s1: 2.88
O=C(Nc1cc(F)c(=O)n(CC(F)F)c1)c1cc(C2COC2)c(Cl)s1 [Compound 49c]: 16.8
CN(C)CCn1cc(C#Cc2cc(C(=O)Nc3cc(F)c(=O)n(CC(F)F)c3)sc2Cl)cn1 [Compound 123c]: 0.471
Cn1cnc(C#Cc2cc(C(=O)Nc3cc(F)c(=O)n(CC(F)F)c3)sc2Cl)n1 [Compound 67c]: 0.371
Cc1nc2cc(C#Cc3cc(C(=O)Nc4cc(F)c(=O)n(CC(F)F)c4)sc3Cl)ccc2[nH]1 [Compound 141c]: 0.028
NC(=O)Cn1cc(C#Cc2cc(C(=O)Nc3cc(F)c(=O)n(CC(F)F)c3)sc2Cl)cn1 [Compound 120c]: 0.0909
Cn1cnc(C#Cc2cc(C(=O)Nc3cc(F)c(=O)n(CC(F)F)c3)sc2Cl)c1 [Compound 60c]: 0.251

P: O=C(Nc1cc(F)c(=O)n(CC(F)F)c1)c1cc(C#Cc2cccnn2)c(Cl)s1 [Compound 55c]
Q: O=C(Nc1cc(F)c(=O)n(CC(F)F)c1)c1cc(C#CC2COC2)cs1 [Compound 73c]
Qu. Choose between P and Q : whose measured IC50 value is numerically larger? Let me know the label of the one you choose.
Ans. Q

1: O=C1CC(C#Cc2cc(C(=O)Nc3cc(F)c(=O)n(CC(F)F)c3)sc2Cl)CN1 (stereo not drawn) [Compound 116c]
2: O=C(Nc1cc(F)c(=O)n(CC(F)F)c1)c1cc(CC(F)(F)F)c(Cl)s1 [Compound 24c]
Qu. Choose between 1 and 2 : whose measured IC50 value is numerically larger? Let me know the label of the one you choose.
Ans. 2
(2: 11.3 µM, 1: 0.206 µM)

I: O=C(Nc1cc(F)c(=O)n(CC(F)F)c1)c1cc(C#CC2COC2)c(C(F)F)s1 [Compound 80c]
II: NC(=O)c1cccc(C#Cc2cc(C(=O)Nc3cc(F)c(=O)n(CC(F)F)c3)sc2Cl)c1 [Compound 57c]
III: O=C1CC(C#Cc2cc(C(=O)Nc3cc(F)c(=O)n(CC(F)F)c3)sc2Cl)CCN1 (stereo not drawn) [Compound 105c]
IV: COCc1cc(NC(=O)c2cc(F)c(Cl)s2)cn(CC(F)F)c1=O
Qu. Reorder: IC50, max to min. Would you mind listing the labels in the order asked for?
Ans. IV, I, III, II
(IV: 40 µM, I: 0.161 µM, III: 0.0407 µM, II: 0.0209 µM)

====

Molecular target: FL-SMARCA2 (full-length human SMARCA2 isoform 1) (Homo sapiens)
Construct: FLAG tag (YKDDDDK) (C); made in house; host or cells: Sf21 insect cells (baculovirus, pFastBacI)
Experiment: SMARCA2 ATPase activity assay (ADP-Glo, chicken mononucleosome substrate)
Assay type: biochemical
Settings: Table 3c.1; ATPase assay, enzyme 5 nM, ATP 250 uM, chicken mononucleosome 10 nM, 30 min preincubation
Protocol: Molecular Biology: Full-length human SMARCA2 isoform 1 (P51531) transcript clone was amplified from a cDNA library incorporating an N-terminal HIS tag ([…]) fused directly to Ser2 of SMARCA2 and a C-FLAG tag (YKDDDDK) fused directly to Glu1590 of SMARCA2. […] Expressed full-length SMARCA2 was purified from cell paste by FLAG affinity chromatography followed by anion exchange chromatography. […] The purity of the protein was measured as 74% using micro-capillary based gel electrophoresis.
VALUE KIND: IC50 (µM)

O=C(Nc1cc(F)c(=O)n(CC(F)F)c1)c1cc(C(F)(F)F)c(Cl)s1 [Compound 37c]: 0.482
O=C(Nc1cc(F)c(=O)n(CC(F)F)c1)c1cc(C#Cc2ccc(Cl)cc2)c(Cl)s1 [Compound 35c]: 0.698
CNC(=O)c1cccc(C#Cc2cc(C(=O)Nc3cc(F)c(=O)n(CC(F)F)c3)sc2Cl)c1 [Compound 86c]: 0.0172

I: N#Cc1sc(C(=O)Nc2cc(F)c(=O)n(CC(F)F)c2)cc1C(F)(F)F [Compound 96c]
II: O=C(Nc1cc(F)c(=O)n(CC(F)F)c1)c1cc(C#Cc2ccncc2)c(F)s1 [Compound 106c]
III: O=C(Nc1cc(F)c(=O)n(CC(F)F)c1)c1cc(C#CC2CN(CC(F)(F)F)C2)c(Cl)s1 [Compound 69c]
IV: O=C(Nc1cc(F)c(=O)n(CC(F)F)c1)c1cc(Cl)c(Cl)s1 [Compound 47c]
Qu. Reorder: IC50, max to min. Would you mind listing the labels in the order asked for?
Ans. I, III, IV, II

1: Nc1cc(C#Cc2cc(C(=O)Nc3cc(F)c(=O)n(CC(F)F)c3)sc2Cl)ccn1 [Compound 124c]
2: O=C(Nc1cc(F)c(=O)n(CC(F)F)c1)C1CCC(C(F)(F)F)O1 (centres unmarked) [Compound 135c]
Qu. Choose between 1 and 2 : whose measured IC50 value is numerically larger? Let me know the label of the one you choose.
Ans. 2
(2: 39.5 µM, 1: 0.0109 µM)

A: Cc1cnc(C#Cc2cc(C(=O)Nc3cc(F)c(=O)n(CC(F)F)c3)sc2Cl)o1 [Compound 71c]
B: O=C(Nc1cc(-c2c[nH]cn2)c(=O)n(CC(F)F)c1)c1cc(Cl)c(C(F)(F)F)s1 [Compound 104c]
C: NCCn1cc(NC(=O)c2cc(F)c(Cl)s2)cc(F)c1=O [Compound 32c]
Qu. Ascending by IC50, please. Would you mind listing the labels in the order asked for?
Ans. A, C, B
(A: 0.092 µM, C: 5.67 µM, B: 22.4 µM)

1: O=C(Nc1cc(CO)c(=O)n(CC(F)F)c1)c1cc(F)c(Cl)s1 [Compound 12c]
2: CC(C)(C)OC(=O)N1CC(C#Cc2cc(C(=O)Nc3cc(F)c(=O)n(CC(F)F)c3)sc2Cl)C1 [Compound 10c]
Qu. Choose between 1 and 2 : whose measured IC50 value is numerically larger? Let me know the label of the one you choose.
Ans. 1

====

Listing: pIC50 of selected molecules
Molecular target: UniProt P51532
Sequence (P51532 whole entry): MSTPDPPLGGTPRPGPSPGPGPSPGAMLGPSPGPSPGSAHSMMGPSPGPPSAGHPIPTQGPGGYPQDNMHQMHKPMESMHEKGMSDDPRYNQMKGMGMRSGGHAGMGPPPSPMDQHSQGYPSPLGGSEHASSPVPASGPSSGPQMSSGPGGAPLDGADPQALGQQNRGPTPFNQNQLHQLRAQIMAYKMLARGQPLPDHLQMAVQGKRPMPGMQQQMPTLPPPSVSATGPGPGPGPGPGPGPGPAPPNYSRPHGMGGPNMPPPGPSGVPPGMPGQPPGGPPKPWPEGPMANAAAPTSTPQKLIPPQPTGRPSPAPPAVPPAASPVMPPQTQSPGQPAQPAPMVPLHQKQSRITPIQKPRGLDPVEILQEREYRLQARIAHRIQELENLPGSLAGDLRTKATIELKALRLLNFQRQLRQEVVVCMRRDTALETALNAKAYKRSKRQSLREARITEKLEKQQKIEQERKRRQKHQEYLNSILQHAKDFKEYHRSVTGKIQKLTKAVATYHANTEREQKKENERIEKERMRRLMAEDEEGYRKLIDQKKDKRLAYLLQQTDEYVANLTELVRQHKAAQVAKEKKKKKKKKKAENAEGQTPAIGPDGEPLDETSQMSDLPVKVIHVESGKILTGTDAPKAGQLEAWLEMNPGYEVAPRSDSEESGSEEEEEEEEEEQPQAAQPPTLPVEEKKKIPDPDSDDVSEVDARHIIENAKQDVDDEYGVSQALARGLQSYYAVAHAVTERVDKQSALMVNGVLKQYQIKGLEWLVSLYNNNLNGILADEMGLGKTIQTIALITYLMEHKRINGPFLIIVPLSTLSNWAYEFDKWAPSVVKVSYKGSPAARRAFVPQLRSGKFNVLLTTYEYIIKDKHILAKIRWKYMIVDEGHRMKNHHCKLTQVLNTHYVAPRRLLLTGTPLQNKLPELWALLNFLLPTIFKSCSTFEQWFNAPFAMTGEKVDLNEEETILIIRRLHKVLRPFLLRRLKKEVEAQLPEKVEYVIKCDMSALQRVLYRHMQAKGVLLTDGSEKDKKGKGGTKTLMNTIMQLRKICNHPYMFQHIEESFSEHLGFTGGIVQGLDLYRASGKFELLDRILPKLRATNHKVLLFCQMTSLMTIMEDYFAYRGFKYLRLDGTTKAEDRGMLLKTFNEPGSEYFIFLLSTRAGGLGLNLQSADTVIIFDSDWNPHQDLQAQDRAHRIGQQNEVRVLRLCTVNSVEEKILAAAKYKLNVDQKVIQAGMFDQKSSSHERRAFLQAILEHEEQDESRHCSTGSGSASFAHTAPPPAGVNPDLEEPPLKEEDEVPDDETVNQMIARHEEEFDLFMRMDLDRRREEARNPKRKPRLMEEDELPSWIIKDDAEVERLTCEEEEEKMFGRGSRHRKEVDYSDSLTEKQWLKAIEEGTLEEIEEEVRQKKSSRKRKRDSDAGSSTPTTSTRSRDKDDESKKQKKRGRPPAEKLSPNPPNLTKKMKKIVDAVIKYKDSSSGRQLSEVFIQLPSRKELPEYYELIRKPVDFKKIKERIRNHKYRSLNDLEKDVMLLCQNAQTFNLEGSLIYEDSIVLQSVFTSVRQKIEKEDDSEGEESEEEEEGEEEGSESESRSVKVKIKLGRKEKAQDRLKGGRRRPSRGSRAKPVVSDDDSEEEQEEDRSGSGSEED
Assay: SMARCA4 ATPase activity assay (ADP-Glo, chicken mononucleosome substrate)
Details: FL-SMARCA4 IC50, Table 3a.2; SMARCA4 5 nM, ATP 250 uM, mononucleosome 10 nM
pIC50: −log10 of the molar value.

Field: example entries. Status: answers known.
CCn1cc(NC(=O)c2cc3c(n2C)CCC3)ccc1=O [Compound 34a]: < 4.30
CCn1cc(NC(=O)c2nc3cc(Cl)c(F)cc3[nH]2)ccc1=O [Compound 32a]: < 4.30
O=C(Nc1ccc(=O)n(Cc2ccccc2Cl)c1)C1COCCN1 (stereo not drawn): < 4.30
CCn1cc(NC(=O)[C@@H]2C[C@H](OC)CN2C)ccc1=O: < 4.30
O=C(Nc1cc(F)c(=O)n(CCF)c1)N1CCCC1 [Compound 52a]: < 4.30
O=C(Nc1cc(F)c(=O)n(CCF)c1)N1CCC(Cl)=C(Cl)C1 [Compound 60a]: 4.33
CN1CCC(C(=O)Nc2cc(F)c(=O)n(CCF)c2)CC1=O (stereo not drawn) [Compound 47a]: < 4.30
O=C(Nc1cc(F)c(=O)n(CCF)c1)c1cc2cncnc2[nH]1 [Compound 66a]: < 4.30
CCn1cc(NC(=O)c2ccc3ccccc3n2)ccc1=O [Compound 26a]: < 4.30
CCn1cc(NC(=O)c2cccnc2)ccc1=O [Compound 14a]: < 4.30

Qu. Value lookup for pIC50; key = O=C(Nc1cc(F)c(=O)n(CCF)c1)N1CCn2ccnc2C1 [Compound 53a]
Ans. < 4.30

Qu. How about this molecule: CCn1cc(NC(=O)c2nc3cc(F)c(Cl)cc3s2)ccc1=O [Compound 46a]
Ans. 4.39

Qu. How about this molecule: CCn1cc(NC(=O)c2cn3cc(Cl)c(F)cc3n2)ccc1=O [Compound 45a]
Ans. < 4.30

Qu. How about this molecule: CCn1cc(NC(=O)c2ccc(C(F)(F)F)cn2)ccc1=O [Compound 58a]
Ans. < 4.30

Qu. How about this molecule: COc1ccc2nc(C(=O)Nc3cc(F)c(=O)n(CCF)c3)sc2c1 [Compound 62a]
Ans. 4.32
